Test system: Surinam grass
Protocol: Test B pre-/postemergence herbicide test
Assay type: in vivo, Urochloa decumbens
Reported Conditions: Preemergence, 500 g ai/ha; scale 0 to 100
Protocol: […] At the same time, plants selected from these crop and weed species and also blackgrass (Alopecurus myosuroides Huds.), wheat (Triticum aestivum L.) and wild oat (Avena fatua L.) were treated with postemergence applications of test chemicals formulated in the same manner. […] Treated plants and controls were maintained in a greenhouse for 13 to 15 days, after which time all species were compared to controls and visually evaluated. […]
Measured Surinam Grass plant response rating of individual entries

C=Cn1nc(C(C)(C)C)cc1C(=O)Nc1cccc(C(=O)NCC)c1 ... 80
CCNC(=O)c1cc(NC(=O)c2cc(C(C)(C)C)nn2CC)ccc1F ... 60
C=CCNC(=O)c1cccc(NC(=O)c2cc(C(C)(C)C)nn2CC)c1 ... 70
CCN(CC)C(=O)c1cc(NC(=O)c2cc(C(C)(C)C)nn2CC)ccc1F ... 10

Attention now turns to another entry.
Ask: Determine from records and report Surinam Grass plant response rating for C#CCn1nc(C(C)(C)C)cc1C(=O)Nc1cccc(C(=O)NCC)c1
Reply: 50

// provenance: patent US20060069132A1
